molecular target: PRKCB1 (human); assay: radiometric filter-binding kinase assay, Kinase HotSpot; settings: compound 0.5 µM; ATP 10 µM
Quantity Measured: residual activity (%)
Numbers only, in %.

Sample answers from the record:
{"Compound String": "CC(C)[C@H](CO)Nc1nc(Nc2cccc(Cl)c2)c2ncn(C(C)C)c2n1", "Quantity Measured": "residual activity", "Observed Measurement": 102}
{"Compound String": "CC(C)(C)c1nc2c3ccc(F)cc3c3c(=O)[nH]ccc3c2[nH]1", "Quantity Measured": "residual activity", "Observed Measurement": 91.5}
{"Compound String": "CCN1/C(=C/C(C)=O)Sc2ccc(OC)cc21", "Quantity Measured": "residual activity", "Observed Measurement": 99.4}

Now for another entry.
Task item: Would you kindly share the measured residual activity for Cc1cc2ncc(-c3ccccc3)nc2cc1C ?
Reply: 103
